molecular target: Torpedo AChR ion channel ([3H]18-MC site) (Tetronarce californica, UniProt P02710+P02712+P02714+P02718); type: binding; conditions: Ki, [3H]18-MC; resting/α-BTx-bound state
Sequence (P02710 25-461): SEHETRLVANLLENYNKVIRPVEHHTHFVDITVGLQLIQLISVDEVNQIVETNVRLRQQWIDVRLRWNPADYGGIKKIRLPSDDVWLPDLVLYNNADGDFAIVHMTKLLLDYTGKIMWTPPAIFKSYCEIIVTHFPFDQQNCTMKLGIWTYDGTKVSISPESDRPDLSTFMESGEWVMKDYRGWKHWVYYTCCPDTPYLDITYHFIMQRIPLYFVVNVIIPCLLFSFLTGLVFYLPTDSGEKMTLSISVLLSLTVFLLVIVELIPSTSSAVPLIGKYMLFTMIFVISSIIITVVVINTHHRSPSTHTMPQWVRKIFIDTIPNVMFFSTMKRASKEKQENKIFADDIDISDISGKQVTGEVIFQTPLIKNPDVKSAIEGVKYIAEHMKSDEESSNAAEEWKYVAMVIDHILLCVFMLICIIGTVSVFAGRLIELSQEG
Sequence (P02712 25-493): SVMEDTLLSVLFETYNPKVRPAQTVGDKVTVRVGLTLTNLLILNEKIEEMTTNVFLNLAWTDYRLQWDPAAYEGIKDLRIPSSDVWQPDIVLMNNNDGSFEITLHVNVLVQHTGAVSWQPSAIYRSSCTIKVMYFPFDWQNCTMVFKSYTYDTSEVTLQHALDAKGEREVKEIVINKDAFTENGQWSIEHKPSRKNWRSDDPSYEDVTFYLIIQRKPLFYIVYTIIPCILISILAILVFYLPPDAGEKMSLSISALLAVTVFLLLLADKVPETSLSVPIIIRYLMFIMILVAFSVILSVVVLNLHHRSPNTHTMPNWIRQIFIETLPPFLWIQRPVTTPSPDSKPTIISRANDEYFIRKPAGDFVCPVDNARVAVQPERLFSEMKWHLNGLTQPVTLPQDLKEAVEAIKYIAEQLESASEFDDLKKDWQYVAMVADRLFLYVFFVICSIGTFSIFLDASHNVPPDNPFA
Sequence (P02714 18-506): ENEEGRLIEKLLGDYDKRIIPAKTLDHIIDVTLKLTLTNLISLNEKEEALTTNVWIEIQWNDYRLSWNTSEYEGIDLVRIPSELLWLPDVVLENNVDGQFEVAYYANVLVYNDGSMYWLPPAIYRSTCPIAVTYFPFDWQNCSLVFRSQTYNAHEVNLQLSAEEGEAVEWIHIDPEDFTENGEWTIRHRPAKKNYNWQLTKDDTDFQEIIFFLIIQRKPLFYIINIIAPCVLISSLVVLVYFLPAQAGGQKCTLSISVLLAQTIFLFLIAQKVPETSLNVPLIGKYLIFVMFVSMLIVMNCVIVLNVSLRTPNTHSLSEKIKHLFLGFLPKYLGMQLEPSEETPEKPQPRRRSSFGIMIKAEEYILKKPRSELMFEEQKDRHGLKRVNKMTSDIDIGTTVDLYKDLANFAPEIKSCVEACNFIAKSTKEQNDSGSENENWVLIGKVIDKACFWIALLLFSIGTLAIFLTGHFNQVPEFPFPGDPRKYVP
Sequence (P02718 22-522): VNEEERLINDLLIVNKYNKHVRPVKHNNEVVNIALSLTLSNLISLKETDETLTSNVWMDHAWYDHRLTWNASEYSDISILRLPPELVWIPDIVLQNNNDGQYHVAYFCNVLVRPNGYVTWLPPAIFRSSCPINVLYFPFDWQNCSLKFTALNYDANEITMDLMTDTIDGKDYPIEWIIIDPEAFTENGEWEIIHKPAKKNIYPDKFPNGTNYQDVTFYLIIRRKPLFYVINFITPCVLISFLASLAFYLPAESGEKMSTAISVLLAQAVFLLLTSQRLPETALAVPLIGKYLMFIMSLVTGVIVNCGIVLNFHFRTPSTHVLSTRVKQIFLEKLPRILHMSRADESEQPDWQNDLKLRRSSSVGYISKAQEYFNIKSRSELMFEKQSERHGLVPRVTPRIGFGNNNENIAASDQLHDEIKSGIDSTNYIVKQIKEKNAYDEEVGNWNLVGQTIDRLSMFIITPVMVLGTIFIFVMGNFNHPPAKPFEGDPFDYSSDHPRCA
Hi there, I'd appreciate the recorded pKi for every entry that follows.
Keep it numeric: pKi is minus log10 of the concentration in mol/L.

Inquiry: State the recorded pKi for this entry: COCC[C@H]1CC2CN3CCc4c([nH]c5ccccc45)[C@](C(=O)OC)(C2)[C@H]13
Reply text: 6.00

Inquiry: If you can, please state the reported pKi value of c1ccc(C2(N3CCCCC3)CCCCC2)cc1 .
Reply text: 6.14

* * *

molecular target: Torpedo AChR ion channel ([3H]TCP site) (Tetronarce californica, UniProt P02710+P02712+P02714+P02718); assay: [3H]TCP competition binding to Torpedo AChRs in different conformational states; conditions: Ki, [3H]TCP; desensitized/CCh-bound state
Sequence (P02710 25-461): as the sequence (P02710 25-461) above
Sequence (P02712 25-493): as the sequence (P02712 25-493) above
Sequence (P02714 18-506): as the sequence (P02714 18-506) above
Sequence (P02718 22-522): as the sequence (P02718 22-522) above
READOUT_LABEL: Ki (µM)
Report only the number, with the unit µM understood.

Inquiry: What value of measured Ki is listed for COCC[C@H]1CC2CN3CCc4c([nH]c5ccccc45)[C@](C(=O)OC)(C2)[C@H]13 [18-MC, 18-methoxycoronaridine] ?
Reply text: 0.17

* * *

target: Torpedo AChR (Tetronarce californica, UniProt P02710+P02712+P02714+P02718); assay: Equilibrium binding of [3H]18-MC to Torpedo AChR native membranes
Sequence (P02710 25-461): as the sequence (P02710 25-461) above
Sequence (P02712 25-493): as the sequence (P02712 25-493) above
Sequence (P02714 18-506): as the sequence (P02714 18-506) above
Sequence (P02718 22-522): as the sequence (P02718 22-522) above
READOUT_LABEL: Kd (nM)
Give the quantity in nM, number only.

Inquiry: Could you share which Kd value was measured for COCC[C@H]1CC2CN3CCc4c([nH]c5ccccc45)[C@](C(=O)OC)(C2)[C@H]13 ?
Reply text: 230

* * *

biological target: Torpedo AChR (immobilized) (Tetronarce californica, UniProt P02710+P02712+P02714+P02718); experiment: Binding kinetics by non-linear chromatography on CMAC-Torpedo AChR column; conditions: Ka, epibatidine treated column (desensitized state)
Sequence (P02718 22-522): as above
Sequence (P02712 25-493): as the sequence (P02712 25-493) above
Sequence (P02714 18-506): as the sequence (P02714 18-506) above
Sequence (P02710 25-461): as the sequence (P02710 25-461) above
READOUT_LABEL: Kd (nM)
Write it as a number; the unit nM goes unstated.

Inquiry: Requested read-out Kd, target or system Torpedo AChR (immobilized) (Tetronarce californica, UniProt P02710+P02712+P02714+P02718), entry COCC[C@H]1CC2CN3CCc4c([nH]c5ccccc45)[C@](C(=O)OC)(C2)[C@H]13
Reply text: 337

* * *

target: Torpedo AChR (immobilized) (Tetronarce californica, UniProt P02710+P02712+P02714+P02718); assay: Binding kinetics by non-linear chromatography on CMAC-Torpedo AChR column; settings: Ka, α-BTx treated column (resting state)
READOUT_LABEL: pKd
Keep in mind that pKd stands for -log10 of concentration in molar terms.

Inquiry: pKd for COCC[C@H]1CC2CN3CCc4c([nH]c5ccccc45)[C@](C(=O)OC)(C2)[C@H]13 [18-MC, 18-methoxycoronaridine] ?
Reply text: 6.05

* * *

biological target: Torpedo AChR (Tetronarce californica, UniProt P02710+P02712+P02714+P02718); experiment: biochemical
READOUT_LABEL: EC50 (nM)
Your answer is read as nM, so omit the unit and give the number.

Inquiry: Data request, read-out EC50, for COCC[C@H]1CC2CN3CCc4c([nH]c5ccccc45)[C@](C(=O)OC)(C2)[C@H]13
Reply text: 300

Values from paper PMC3787694
